# target of assay: NNMT (hNNMT) (Homo sapiens)
# Construct: wild type, N-terminal His6 tag kept (no cleavage described), E. coli, construct 31248 Da
# Sequence (P40261 whole entry): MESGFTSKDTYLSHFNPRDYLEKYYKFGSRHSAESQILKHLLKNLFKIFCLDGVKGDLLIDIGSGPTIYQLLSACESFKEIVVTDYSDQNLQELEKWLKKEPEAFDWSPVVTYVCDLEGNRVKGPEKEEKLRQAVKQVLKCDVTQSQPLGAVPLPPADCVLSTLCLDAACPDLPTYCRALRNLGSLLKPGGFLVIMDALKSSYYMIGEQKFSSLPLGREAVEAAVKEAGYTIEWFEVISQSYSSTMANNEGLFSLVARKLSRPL
# Design: Intact protein LC/MS covalent labelling, fragments in pools of five, 200 uM each, 4 °C
# cond: 24 h, 4 °C, pool of five; 200 µM; covalent
assay metric: NNMT
Write the value as a bare number.

>  <structure smiles string>
C=CC(=O)NCc1cc(F)c(C(F)(F)F)cc1F

>  <NNMT>
0.2

$$$$

[Q] What NNMT value was documented for this molecule, O=C(CCl)Nc1nc2c(s1)CCC2 ?
[A] 0.59

[Q] Please answer likewise for C=CC(=O)N1CCn2nc(C)nc2C1
[A] 0

[Q] Also O=C(CCl)Nc1nnc(-c2ccccc2)o1 ?
[A] 0.14

[Q] Same question, O=C(CCl)Nc1cccc(Cl)c1Cl this time
[A] 0

[Q] Here is the next molecule: O=C(CCl)N1CCCC1=O
[A] 0

* * *

# assay overview: in vitro
# Set-up: species or system HB2, CCD841
# cond: human, hek293 cells
assay metric: viability at 48 h, 10 µM
Report the figure along with its unit, number first.

Example results:
>  <compound>
C=CC(=O)N1CC(S(=O)(=O)CC)C1

>  <viability at 48 h, 10 µM>
77.7%

$$$$
>  <compound>
O=C(CCl)Nc1ccc(F)cc1F

>  <viability at 48 h, 10 µM>
32%

$$$$

[Q] If you can, please state the reported viability at 48 h, 10 µM value of O=C(CCl)N1CCN(C(=O)c2cccs2)CC1 .
[A] 12.9%

[Q] Also CC(C)(C)C(NC(=O)CCl)c1cccs1 (stereo not shown) , if possible.
[A] 63.6%

[Q] Another compound to look at: O=C(CCl)Nc1cccc(-c2nnc3n2CCCCC3)c1
[A] 39.2%

[Q] Then this compound: O=C(CCl)Nc1ccc(Br)cc1Cl
[A] 31.6%

[Q] Same again, this time with O=C(CCl)N1CCOC2CCCCC21 (stereo not shown)
[A] 74%

[Q] // same read-out, input: O=C(CCl)N1CCN(S(=O)(=O)c2cccc(F)c2)CC1
[A] 8.1%

[Q] Field entry: CC(C)N(C)C(=O)C1CCN(C(=O)CCl)CC1
[A] 79.8%

[Q] Queued: CC(NC(=O)CCl)c1ccc(Cl)cc1 (stereo not shown)
[A] 68.5%

[Q] Moving on to O=C(CCl)N1CCCC2CCCCC21 (stereo not shown)
[A] 27.9%

[Q] Queued: C=CC(=O)NC(c1cnn(C)c1)C(F)(F)F (stereo not shown)
[A] 94.4%

[Q] What do you get for NC(=O)c1ccsc1NC(=O)CCl ?
[A] 33.7%

[Q] And the next one, COCC(=O)NC(=O)CCl ?
[A] 105%

[Q] Field entry: CC1Cc2cc(S(N)(=O)=O)ccc2N1C(=O)CCl (stereo not shown)
[A] 16.5%

[Q] And the next one, Cn1nc(-c2ccc(Cl)cc2)cc1NC(=O)CCl ?
[A] 0.5%

[Q] Now consider Cc1sc2nc(-c3cccc(NC(=O)CCl)c3)[nH]c(=O)c2c1C and answer again.
[A] 61.2%

[Q] Next compound up: O=C(CCl)Nc1ccc(Br)cc1
[A] 4.4%

* * *

# assay overview: in vitro
# Design: species or system HB2, CCD841
# cond: human, hek293 cells
Measured viability at 48 h, 10 µM of individual entries

As a guide, the following entries are already answered.
>  <compound>
O=C(CCl)NCC1CCCc2ccccc21 (centres unmarked)

>  <viability at 48 h, 10 µM>
53.5%

$$$$
>  <compound>
CN(Cc1ccc(Cl)s1)C(=O)CCl

>  <viability at 48 h, 10 µM>
7.8%

$$$$
>  <compound>
O=C(CCl)Nc1ccc(N2CCCCCC2)cc1

>  <viability at 48 h, 10 µM>
4%

$$$$
>  <compound>
C=CC(=O)Nc1ccccc1OC

>  <viability at 48 h, 10 µM>
74.7%

$$$$
>  <compound>
CC(NC(=O)CCl)c1ccc2c(c1)CC(=O)N2 (centres unmarked)

>  <viability at 48 h, 10 µM>
74.8%

$$$$
>  <compound>
O=C(CCl)N1CCCCC1

>  <viability at 48 h, 10 µM>
90.8%

$$$$
>  <compound>
O=C(CCl)NNC(=O)CC1CCS(=O)(=O)C1 (centres unmarked)

>  <viability at 48 h, 10 µM>
112%

$$$$
>  <compound>
CN(C(=O)CCl)C1CCCc2ccccc21 (centres unmarked)

>  <viability at 48 h, 10 µM>
5.8%

$$$$

[Q] What value of viability at 48 h, 10 µM has been reported for the following compound? COC(=O)c1c(NC(=O)CCl)sc2c1CCC(C)C2 (centres unmarked)
[A] 56.4%
